# MEASUREMENT CONTEXT: % Viability non-Wnt responsive cells
Where a SMILES comes first, the peptide text is derived from it.
READOUT TYPE: viability (%)

{"columns": ["COMPOUND", "READOUT TYPE", "UNIT SYMBOL", "MEASURED VALUE"],
 "data": [
  ["CC[C@H](C)[C@@H]1NC(=O)[C@H](CC(C)C)NC(=O)[C@H]([C@@H](C)CC)NC(=O)[C@H](Cc2c[nH]c3ccccc23)NC(=O)[C@@H](NC(C)=O)CCCCNC(=O)CC[C@@H](C(=O)O)NC(=O)[C@H](Cc2c[nH]c3ccccc23)NC(=O)[C@H](C)NC(=O)[C@H](CO)NC1=O [compound 188] (HELM PEPTIDE1{[ac].K.W.I.L.I.S.A.W.E}$PEPTIDE1,PEPTIDE1,2:R3-10:R3$$$V2.0)", "viability", "%", 97.6],
  ["CC[C@H](C)[C@H](NC(=O)[C@H](CC(C)C)NC(=O)[C@H](Cc1ccccc1)NC(=O)[C@H](Cc1c[nH]c2ccccc12)NC(C)=O)C(=O)N[C@@H](CO)C(=O)N[C@@H](Cc1ccccc1)C(=O)N[C@@H](Cc1c[nH]c2ccccc12)C(=O)NCC(=O)O [compound 220] (Ac-WFLISFWG-OH)", "viability", "%", 93.2]
]}

---

# TESTED ON: β-catenin (Homo sapiens)
# Sequence (P35222 whole entry): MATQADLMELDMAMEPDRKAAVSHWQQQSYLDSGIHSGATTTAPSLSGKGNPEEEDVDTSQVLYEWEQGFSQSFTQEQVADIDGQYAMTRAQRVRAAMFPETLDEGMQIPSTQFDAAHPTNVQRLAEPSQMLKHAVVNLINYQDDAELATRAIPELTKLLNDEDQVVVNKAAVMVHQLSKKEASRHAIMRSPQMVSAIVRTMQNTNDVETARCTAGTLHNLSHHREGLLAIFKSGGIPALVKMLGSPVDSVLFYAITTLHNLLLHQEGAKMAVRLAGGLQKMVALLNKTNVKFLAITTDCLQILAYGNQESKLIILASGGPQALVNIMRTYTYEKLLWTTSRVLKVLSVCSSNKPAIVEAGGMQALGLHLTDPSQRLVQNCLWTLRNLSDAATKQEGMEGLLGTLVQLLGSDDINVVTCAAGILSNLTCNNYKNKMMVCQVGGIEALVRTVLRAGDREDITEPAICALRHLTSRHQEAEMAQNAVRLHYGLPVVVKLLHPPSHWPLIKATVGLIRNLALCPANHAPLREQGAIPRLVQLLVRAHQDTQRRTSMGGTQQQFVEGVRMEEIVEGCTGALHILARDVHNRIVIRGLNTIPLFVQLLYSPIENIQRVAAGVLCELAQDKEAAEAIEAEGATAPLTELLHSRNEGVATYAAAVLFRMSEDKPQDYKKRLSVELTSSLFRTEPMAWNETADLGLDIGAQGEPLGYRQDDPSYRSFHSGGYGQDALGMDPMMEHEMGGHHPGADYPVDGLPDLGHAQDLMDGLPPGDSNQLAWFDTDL
# ASSAY REMARKS: KD50 measurement using competitive fluorescence polarization (FP) with labelled TCF4
# Assay type: binding
# MEASUREMENT CONTEXT: fluorescence polarization, β-catenin; read-out: β-Cat FP KD
Where a SMILES comes first, the peptide text is derived from it.
Listed compounds paired with reported Kd

{"columns": ["COMPOUND", "Kd"],
 "data": [
  ["CC[C@H](C)[C@@H]1NC(=O)[C@H](CC(C)C)NC(=O)[C@@H](N)CCCCNC(=O)C[C@@H](C(=O)O)NC(=O)[C@H](Cc2c[nH]c3ccccc23)NC(=O)[C@H](Cc2ccccc2)NC(=O)[C@H](C)NC1=O [compound 251] (HELM PEPTIDE1{K.L.I.A.F.W.D}$PEPTIDE1,PEPTIDE1,1:R3-7:R3$$$V2.0)", "> 30 µM"],
  ["CC[C@H](C)[C@@H]1NC(=O)[C@H](CC(C)C)NC(=O)[C@H](Cc2ccccc2)NC(=O)[C@H](Cc2c[nH]c3ccccc23)NC(=O)[C@@H](N)CCCCNC(=O)C[C@@H](C(=O)O)NC(=O)[C@H](Cc2c[nH]c3ccccc23)NC(=O)[C@H](C)NC(=O)[C@H](CO)NC1=O [compound 202] (HELM PEPTIDE1{K.W.F.L.I.S.A.W.D}$PEPTIDE1,PEPTIDE1,1:R3-9:R3$$$V2.0)", "> 30 µM"],
  ["CC[C@H](C)[C@H](NC(=O)[C@H](CC(C)C)NC(=O)[C@H](Cc1ccccc1)NC(=O)[C@H](Cc1c[nH]c2ccccc12)NC(=O)[C@@H](N)CCSC)C(=O)N[C@@H](CCC(N)=O)C(=O)N[C@@H](Cc1ccccc1)C(=O)N[C@@H](Cc1ccc(O)cc1)C(=O)NCC(=O)O [compound 149] (H-MWFLIQFYG-OH)", "0.4 to 1 µM"]
]}

---

# MEASUREMENT CONTEXT: % Viability non-Wnt responsive cells
Where a SMILES comes first, the peptide text is derived from it.
Listed compounds paired with reported viability

{"columns": ["COMPOUND", "viability / %"],
 "data": [
  ["CC[C@H](C)[C@H](NC(=O)[C@H](CC(C)C)NC(=O)[C@H](Cc1ccccc1)NC(=O)[C@H](Cc1c[nH]c2ccccc12)NC(=O)[C@H](CCSC)NC(=O)[C@H](CCCNC(=N)N)NC(=O)[C@H](CO)NC(=O)[C@@H](N)CCSC)C(=O)N[C@@H](CO)C(=O)N[C@@H](Cc1ccccc1)C(=O)N[C@@H](Cc1c[nH]c2ccccc12)C(N)=O [compound 72] (H-MSRMWFLISFW-NH2)", 88.6],
  ["CC[C@H](C)[C@H](NC(=O)[C@H](CC(C)C)NC(=O)[C@H](Cc1ccccc1)NC(=O)[C@H](Cc1c[nH]c2ccccc12)NC(=O)[C@H](CCCCN)NC(=O)[C@H](CCCNC(=N)N)NC(=O)[C@H](CO)NC(=O)[C@@H](N)CCSC)C(=O)N[C@@H](CO)C(=O)N[C@@H](Cc1ccccc1)C(=O)N[C@@H](Cc1c[nH]c2ccccc12)C(N)=O [compound 87] (H-MSRKWFLISFW-NH2)", 114],
  ["CC[C@H](C)[C@@H]1NC(=O)[C@H](CC(C)C)NC(=O)[C@H](C2CCCCC2)NC(=O)[C@H](Cc2c[nH]c3ccccc23)NC(=O)[C@@H](N)CCCCNC(=O)C[C@@H](C(=O)O)NC(=O)[C@H](Cc2c[nH]c3ccccc23)NC(=O)[C@H](C)NC(=O)[C@H](CO)NC1=O [compound 204] (HELM PEPTIDE1{K.W.[O=C([C@@H](N[*:1])C1CCCCC1)[*:2]].L.I.S.A.W.D}$PEPTIDE1,PEPTIDE1,1:R3-9:R3$$$V2.0)", 108]
]}
